System Tested: CETP (Homo sapiens, UniProt P11597)
Construct: from tissue; host or cells: human plasma
Sequence (P11597 18-493): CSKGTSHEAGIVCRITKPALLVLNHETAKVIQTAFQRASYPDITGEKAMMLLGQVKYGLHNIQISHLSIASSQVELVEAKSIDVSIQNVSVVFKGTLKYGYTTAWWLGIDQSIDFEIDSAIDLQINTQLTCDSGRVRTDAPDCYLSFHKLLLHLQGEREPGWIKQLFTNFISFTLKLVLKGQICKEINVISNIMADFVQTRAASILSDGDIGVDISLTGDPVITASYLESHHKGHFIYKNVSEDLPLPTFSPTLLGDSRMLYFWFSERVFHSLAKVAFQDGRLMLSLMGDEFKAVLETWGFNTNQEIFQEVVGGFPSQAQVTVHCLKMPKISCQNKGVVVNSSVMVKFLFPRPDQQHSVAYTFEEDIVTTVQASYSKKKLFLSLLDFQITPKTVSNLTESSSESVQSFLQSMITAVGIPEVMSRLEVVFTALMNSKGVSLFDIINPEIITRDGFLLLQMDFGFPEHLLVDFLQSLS
Assay Protocol: Measurement of CETP inhibitory action in human plasma (Roar Biomedical CETP Activity kit, fluorescence)
Assay type: biochemical
Test Settings: human plasma incubated with compound at 37° C. for 4 hours; calculated from CETP inhibitory rate at two or more concentrations; read-out: IC50 (concentration inhibiting the CETP activity by 50%)
potency estimated from few doses for assorted molecules
Property Label: potency estimated from few doses (nM)

* CCN(CC1CCCC1)c1nc2ccc(OC)cc2cc1CN(c1ncc(OCCS(C)(=O)=O)cn1)C(C)c1cc(C(F)(F)F)cc(C(F)(F)F)c1 (stereo not drawn) [Example 9] | 500
* CCc1ccc(CN(c2ncc(OCCS(C)(=O)=O)cn2)C(C)c2cc(C(F)(F)F)cc(C(F)(F)F)c2)c(N(CC)CC2CCCC2)n1 (stereo not drawn) [Example 17] | 45
* CCN(CC1CCCC1)c1nc(C)c(C)cc1CN(c1ncc(OCCS(C)(=O)=O)cn1)C(C)c1cc(C(F)(F)F)cc(C(F)(F)F)c1 (stereo not drawn) [Example 19] | 30
* CCN(CC1CCCC1)c1nc2ccccc2cc1CN(c1ncc(OCCS(C)(=O)=O)cn1)C(C)c1cc(C(F)(F)F)cc(C(F)(F)F)c1 (stereo not drawn) [Example 7] | 50
* CCN(CC1CCCC1)c1nc2ccc(C(F)(F)F)cc2cc1CN(c1ncc(OCCS(C)(=O)=O)cn1)C(C)c1cc(C(F)(F)F)cc(C(F)(F)F)c1 (stereo not drawn) [Example 11] | 80
* CCN(CC1CCCC1)c1nc2c(cc1CN(c1ncc(OCCS(C)(=O)=O)cn1)C(C)c1cc(C#N)cc(C(F)(F)F)c1)c(C)nn2C (stereo not drawn) [Example 23] | 150
